Measured composite z-score of individual entries
- protocolDescription: binders of probe aFGF2 on microarray, primary screen, stem cell growth factor project, biochemical, small-molecule microarray, fluorescence 635/667 (AID 1067);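 also: measures binding of biotinylated aFGF2 protein to printed compounds on slides; z-score merges feature fluorescence and signal-to-noise across triplicate slides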
- experimentalParameters: higher = more signal
valueType: composite z-score

- molecule: "COC(=O)[C@@]1(Cc2ccccc2)[C@H]2c3cc(C(=O)N4CCCC4)n(Cc4ccccn4)c3C[C@H]2CN1C(=O)c1ccccc1"
  endpointResult: 0.589
- molecule: "C#CCCCON=C1C[C@@H](O)[C@@H](O)[C@@H]2[C@@H]3C(=O)N(c4cccc(Oc5ccccc5)c4)C(=O)[C@@H]3CC[C@@H]12"
  endpointResult: -0.0296
- molecule: "COCCCNC(=O)[C@@]1(Sc2ccc(C)cc2)CC(=O)N(Cc2ccccc2)[C@@H]1c1ccc(CO)cc1I"
  endpointResult: 0.193
- molecule: "CC(C)=CCCC(C)=CCON=C1[C@H]2CCn3c(=O)n(C)c(=O)n3[C@H]2[C@H](O)[C@@H]2O[C@H]12"
  endpointResult: -0.156
- molecule: "COC(=O)[C@H]1COC(c2ccc(OCCCO)cc2)=N1"
  endpointResult: -0.0425
- molecule: "CCCC[C@@H](O)C1=C(C)C[C@H]2C(=O)N(Cc3ccccc3)C(=O)[C@H]2[C@H]1CO"
  endpointResult: -0.0564
- molecule: "COCCOC(=O)N1C(=O)[C@@]2(c3cc(C#CCNC(N)=O)ccc31)[C@H](c1ccc(O)cc1)N1[C@H](c3ccccc3)[C@H](c3ccccc3)OC(=O)[C@H]1[C@@H]2C(=O)N1CCCCCCC1"
  endpointResult: -0.0022
- molecule: "CCN1C(=O)[C@H]2[C@H]3[C@H](O)[C@H](O)CC(=NOCc4ccccc4)[C@H]3CC[C@H]2C1=O"
  endpointResult: -0.116
- molecule: "COC(=O)[C@]1(CO)N=C(c2ccc(OCCCO)cc2)O[C@@H]1c1ccccc1N=[N+]=[N-]"
  endpointResult: -0.0614
- molecule: "CC(C)CON=C1[C@H]2CCn3c(=O)n(-c4ccccc4)c(=O)n3[C@H]2[C@H](O)[C@@H]2O[C@H]12"
  endpointResult: -0.102
- molecule: "O=C1[C@H]2[C@H]3[C@H](O)[C@H](O)CC(=NOCc4ccccc4)[C@@H]3CC[C@H]2C(=O)N1C1CCCCC1"
  endpointResult: -0.098
- molecule: "COC(=O)CC=C[C@@H](C)[C@H](OC)c1ccccc1Br"
  endpointResult: -0.0514
- molecule: "COC(=O)[C@H](C)NC(=O)CCC1CC(OC(=O)NCc2ccc3c(c2)OCO3)CC2(CCCC(COC(=O)NCCOc3ccccc3)O2)O1 (some centres undefined)"
  endpointResult: -0.122
- molecule: "C=CC[C@@H]1C=C[C@H](ON=C2c3cc(OC)ccc3O[C@H](c3cccc(OC)c3)[C@H]2O)[C@@H](CO)O1"
  endpointResult: -0.1
- molecule: "CCOC(=O)NN=C1C[C@@H](O)[C@@H](O)[C@@H]2[C@@H]3C(=O)N(CC)C(=O)[C@@H]3CC[C@@H]12"
  endpointResult: -0.0355
- molecule: "CC(=O)OC[C@H]1O[C@H](CCON=C(C)CCN2CCc3nc(-c4ccccc4)c(-c4ccccc4)cc3C2)C=C[C@@H]1OC(C)=O"
  endpointResult: -0.119
- molecule: "CCOc1ccc(N2C(=O)/C(=C/C=C/c3ccccc3OC)S(=O)(=O)C2c2cccc([N+](=O)[O-])c2)cc1 (centres undefined)"
  endpointResult: -0.0906
- molecule: "COC(=O)C1=C(C)N(Cc2ccccc2)[C@]23O[C@](C(=O)OC)(C(=O)N2[C@@H]1c1ccccc1)[C@H]1CCOC(=O)[C@H]13"
  endpointResult: -0.0956
- molecule: "CCOC(=O)C[C@H]1[C@H](OC(=O)c2cc3ccccc3oc2=O)[C@@H](NC(=O)c2ccc3ccccc3n2)c2cc(OCCCO)ccc2N1C(=O)c1ccccc1"
  endpointResult: -0.0455
- molecule: "COC(=O)CC=C[C@@H](C)[C@@H](C=NO[C@H](C)c1cn([C@@H]2COC[C@H]2O)nn1)OC"
  endpointResult: -0.0914
- molecule: "C=CCOC(=O)[C@H]1[C@@H]2C(=O)O[C@@H](c3ccccc3)[C@@H](c3ccccc3)N2[C@@H](c2ccc(OCCOC(=O)[C@H]3C[C@H]4C(=O)N5CCC[C@H]5C(=O)N4[C@H]3c3cccc(OCCO)c3)cc2)[C@]12C(=O)Nc1ccc(I)cc12"
  endpointResult: 0.522
- molecule: "CCOC(=O)[C@H](Cc1ccccc1)NC(=O)CCC1CC(OC(=O)NCc2ccc3c(c2)OCO3)CC2(CCCC(COC(=O)NCC(c3ccccc3)c3ccccc3)O2)O1 (some centres undefined)"
  endpointResult: -0.151
- molecule: "COC(=O)CC=C[C@H](C)[C@@H](OCc1ccccc1Br)C(C)C"
  endpointResult: -0.191
- molecule: "C=C(/C(=C/C[C@H](OC(=O)c1ccncc1)c1ccc(OCCO)cc1)c1cnc2ccccc2c1)C(C)C"
  endpointResult: -0.047
- molecule: "Cc1ccc(S[C@]2(C(=O)NCC(F)(F)F)CC(=O)N(Cc3ccccc3Cl)[C@@H]2c2ccc(CO)cc2I)cc1"
  endpointResult: -0.122
- molecule: "CC(CCC(=O)OC[C@H]1O[C@H](C#Cc2ccccc2)C=C[C@@H]1Oc1ccc(C)cc1)=NOC[C@@H](O)COCc1ccco1"
  endpointResult: 0.0388
- molecule: "[N-]=[N+]=Nc1ccccc1C[C@@]1(C(N)=O)N=C(c2ccc(OCCCO)cc2)O[C@@H]1c1ccccc1"
  endpointResult: 0.0249
- molecule: "COc1cccc([C@H]2Oc3ccc(OC)cc3C(=NO[C@H](C)c3cn([C@@H]4COC[C@H]4O)nn3)[C@@H]2O)c1"
  endpointResult: -0.0867
- molecule: "CCN1C(=O)[C@H]2[C@H]3[C@H](O)[C@H](O)CC(=NOC[C@@H](C)[C@H](OCc4ccccc4)C(C)C)[C@@H]3CC[C@H]2C1=O"
  endpointResult: -0.128
